Answer each item with its documented pIC50.
molecular target: Mac-1 (CD11b/CD18) (Homo sapiens, UniProt P05107+P11215); construct: methodology to isolate neutrophils from ethylenediaminetetraacetic acid (EDTA)-treated venous blood obtained from healthy human volunteers; endogenous in cells; assay: Human Neutrophil Mac-1 Adhesion Assay (PMN KLH); conditions: human neutrophils, FMLP-stimulated, KLH coated plates
Sequence (P05107 23-769, other chains not shown): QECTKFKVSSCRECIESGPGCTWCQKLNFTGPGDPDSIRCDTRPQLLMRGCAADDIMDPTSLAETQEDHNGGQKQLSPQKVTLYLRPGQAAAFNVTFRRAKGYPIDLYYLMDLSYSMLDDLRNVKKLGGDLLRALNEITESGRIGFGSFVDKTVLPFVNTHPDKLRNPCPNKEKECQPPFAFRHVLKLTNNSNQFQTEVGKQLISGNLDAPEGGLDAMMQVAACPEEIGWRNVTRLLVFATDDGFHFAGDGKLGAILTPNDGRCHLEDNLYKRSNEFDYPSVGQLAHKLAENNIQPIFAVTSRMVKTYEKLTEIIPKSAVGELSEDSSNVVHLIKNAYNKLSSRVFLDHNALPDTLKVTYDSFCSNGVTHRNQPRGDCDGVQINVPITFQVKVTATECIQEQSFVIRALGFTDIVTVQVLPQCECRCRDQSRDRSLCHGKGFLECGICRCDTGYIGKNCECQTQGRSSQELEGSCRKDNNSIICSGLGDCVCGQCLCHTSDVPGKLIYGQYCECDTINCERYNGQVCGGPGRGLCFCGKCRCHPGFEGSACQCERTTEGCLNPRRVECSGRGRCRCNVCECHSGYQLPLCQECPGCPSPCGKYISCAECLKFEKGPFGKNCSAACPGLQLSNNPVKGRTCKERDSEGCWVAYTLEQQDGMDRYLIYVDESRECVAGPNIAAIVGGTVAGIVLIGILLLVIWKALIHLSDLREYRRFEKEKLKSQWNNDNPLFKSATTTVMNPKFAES
Numbers only, as −log10 of the molar value.

Some solved entries appear below for comparison.
COc1ccc(-c2n[nH]c(=S)n2C)cc1OC	5.82
CCn1c(-c2cc(Cl)ccc2N)n[nH]c1=S	6.10

Go through the items and report each one's pIC50.
1. Sc1nnc(-c2ccccc2)n1-c1ccccc1
2. CCn1c(-c2ccc(O)cc2)n[nH]c1=S

-- reply
1. 5.96
2. 5.11

Go through the items and report each one's pIC50.
1. Sc1nnc(-c2ccccc2)n1Cc1ccccc1
2. CCn1c(-c2ccccc2N)n[nH]c1=S
3. COc1ccc(-c2n[nH]c(=S)n2-c2ccccc2)cc1OC

-- reply
1: 5.09; 2: 6.40; 3: 6.10
